target: Casein kinase I isoform alpha/delta (Homo sapiens) (UniProt P48730+P48729); test: Inhibition of CK1alpha/CK1delta in human U2OS cells co-expressing Bmal1-dLuc assessed as modulation circadian clock by measuring drug level causing 5 hrs circadian period lengthening measured every 100 mins by luminescence assay; type: cell-based
Sequence (P48729 whole entry, looked up, canonical isoform): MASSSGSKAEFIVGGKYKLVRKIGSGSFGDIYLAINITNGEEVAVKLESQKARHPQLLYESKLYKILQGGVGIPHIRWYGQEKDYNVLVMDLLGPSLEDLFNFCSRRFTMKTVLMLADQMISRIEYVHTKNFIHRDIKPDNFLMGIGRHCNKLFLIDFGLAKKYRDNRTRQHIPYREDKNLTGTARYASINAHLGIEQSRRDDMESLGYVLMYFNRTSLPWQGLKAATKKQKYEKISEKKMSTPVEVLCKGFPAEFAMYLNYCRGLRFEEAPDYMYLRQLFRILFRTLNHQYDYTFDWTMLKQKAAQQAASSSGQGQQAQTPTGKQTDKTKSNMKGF
Sequence (P48730 whole entry, looked up, canonical isoform): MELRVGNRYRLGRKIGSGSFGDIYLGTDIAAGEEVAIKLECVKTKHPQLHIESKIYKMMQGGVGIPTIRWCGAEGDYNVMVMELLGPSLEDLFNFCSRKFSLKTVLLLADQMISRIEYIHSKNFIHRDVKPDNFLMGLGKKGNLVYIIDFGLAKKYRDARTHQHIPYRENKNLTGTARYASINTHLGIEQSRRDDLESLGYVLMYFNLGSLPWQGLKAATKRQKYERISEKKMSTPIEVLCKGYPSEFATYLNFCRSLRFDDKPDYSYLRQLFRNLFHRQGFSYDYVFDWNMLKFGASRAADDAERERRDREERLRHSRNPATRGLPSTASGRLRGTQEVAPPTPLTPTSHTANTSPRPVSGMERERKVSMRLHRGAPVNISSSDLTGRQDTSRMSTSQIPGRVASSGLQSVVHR
Exercise: state measured EC for each of the compounds provided.

May I ask what EC has been recorded for CC(C)n1cnc2c(NCc3cccc(C(F)(F)F)c3)nc(NCCN3CCOCC3)nc21 ?
9.33 µM

May I ask what EC has been recorded for CC(C)n1cnc2c(NCc3cccc(C(F)(F)F)c3)nc(NCCN)nc21 ?
5.23 µM

May I ask what EC has been recorded for CC(C)Oc1nc(NCc2cccc(C(F)(F)F)c2)c2ncn(C(C)C)c2n1 ?
2.75 µM

May I ask what EC has been recorded for CCCCOc1nc(NCc2cccc(C(F)(F)F)c2)c2ncn(C(C)C)c2n1 ?
23.4 µM

May I ask what EC has been recorded for CC(C1CC1)n1cnc2c(NCc3cccc(C(F)(F)F)c3)nc(NCCN(C)C)nc21 (stereo not given) ?
0.32 µM

May I ask what EC has been recorded for CC(C1CC1)n1cnc2c(NCc3cccc(C(F)(F)F)c3)ncnc21 (stereo not given) ?
0.9 µM

May I ask what EC has been recorded for COc1nc(NCc2cccc(C(F)(F)F)c2)c2ncn(C(C)C)c2n1 ?
2.39 µM

May I ask what EC has been recorded for CC(C)n1cnc2c(NCc3cccc(C(F)(F)F)c3)nc(NC3CC3)nc21 ?
3.04 µM

May I ask what EC has been recorded for CC[C@H](CO)Nc1nc(NCc2ccccc2)c2ncn(C(C)C)c2n1 ?
9 µM
